These entries and their values trace back to the supplement of paper PMC9694430.

So I've got a bunch of compounds here, and I need their thermal shift delta Tm values.
# System: LOC_OS01G67340-cb003
# MEASUREMENT DESCRIPTION: thermal shift delta Tm vs DMSO control; higher = stronger stabilization (binding);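 note: purified Escherichia coli-expressed rice kinase domain construct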
# ASSAY SETUP: 12.5 µM; protein concentration 2 µM

Example compounds with recorded thermal shift delta Tm:
| COMPOUND | thermal shift delta Tm |
| --- | --- |
| CN1CCN(c2ccc3nc(-c4c(N)c5c(F)cccc5[nH]c4=O)[nH]c3c2)CC1 [Dovitinib (TKI258) Lactate] | 7.49 °C |
| CNC(=O)c1cccc(-c2ccc3c(N4CCOC[C@@H]4C)nc(N4CCOC[C@@H]4C)nc3n2)c1 | 0.54 °C |
| CCC(=O)Nc1cccc(Oc2nc(Nc3ccc(N4CCN(C)CC4)cc3OC)ncc2Cl)c1 | 0.44 °C |
| Cn1cnc2c(F)c(Nc3ccc(Br)cc3Cl)c(C(=O)NOCCO)cc21 | -0.85 °C |
| CS(=O)(=O)N1CCN(Cc2cc3nc(-c4cccc5[nH]ncc45)nc(N4CCOCC4)c3s2)CC1 | -0.42 °C |
| Cc1csc(-c2nnc(Nc3ccc(Oc4ncccc4-c4ccnc(N)n4)cc3)c3ccccc23)c1 | 0.96 °C |
| O=C(NCCCNc1nc(Nc2cccc(NC(=O)N3CCCC3)c2)ncc1I)c1cccs1 | 2.07 °C |
| CO[C@H]1C[C@@H]2CC[C@@H](C)[C@@](O)(O2)C(=O)C(=O)N2CCCC[C@H]2C(=O)O[C@H]([C@H](C)C[C@@H]2CC[C@@H](OCCO)[C@H](OC)C2)CC(=O)[C@H](C)/C=C(\C)[C@@H](O)[C@@H](OC)C(=O)[C@H](C)C[C@H](C)/C=C/C=C/C=C/1C [Everolimus (RAD001)] | -0.17 °C |

Lab note: each compound below needs its thermal shift delta Tm filled in.
1. COc1ccc(COc2ccc(Cc3cnc(N)nc3N)cc2OC)cc1
2. COc1ccc(S(=O)(=O)N(CCO)c2ccccc2CN(C)C/C=C/c2ccc(Cl)cc2)cc1 [KN-93 Phosphate]
3. Cn1ncc(Cl)c1-c1cc(C(=O)N[C@H](CN)Cc2cccc(F)c2)sc1Cl
4. CCS(=O)(=O)N1CCN(c2ccc(Nc3ncc(C(N)=O)c(NC4CC4)n3)cc2)CC1
5. CN1CCN(c2ccc3nc(-c4c(N)c5c(F)cccc5[nH]c4=O)[nH]c3c2)CC1 [Dovitinib (TKI-258) Dilactic Acid]
6. Nc1ncnc2n[nH]c(Nc3ccc(F)cc3)c12
7. CC(C)CC(=O)Nc1n[nH]c2c1CN(C(=O)C1CCN(C)CC1)C2(C)C
8. O=c1nc(N2CCOCC2)oc2c(-c3cccc4c3sc3ccccc34)cccc12

### Response
1: 0.31 °C; 2: 0.92 °C; 3: 0.54 °C; 4: 3.04 °C; 5: 6.31 °C; 6: 0.86 °C; 7: 0.25 °C; 8: -1.09 °C

// input: 6 compounds below; output: thermal shift delta Tm for each
1. CN(C)CCCn1cc(C2=C(c3c[nH]c4ccccc34)C(=O)NC2=O)c2ccccc21
2. Cc1n[nH]c2ncc(C(=O)N3CCC[C@H]3c3ccc(Cl)cc3)cc12
3. O=C(NCc1ccccc1)c1csc(Nc2ccncn2)n1
4. Nc1ccc(-c2ccc3ncc4ccc(=O)n(-c5cccc(C(F)(F)F)c5)c4c3c2)cn1
5. O=C(O)[C@]1(Cc2cccc(Nc3nccs3)n2)CC[C@@H](Oc2cccc(Cl)c2F)CC1
6. Cc1cnc(Nc2ccc(N3CCN(C)CC3)cc2)nc1Nc1cccc(S(=O)(=O)NC(C)(C)C)c1

### Response
1: 0.56 °C; 2: 0.25 °C; 3: 0.47 °C; 4: 0.33 °C; 5: 3.34 °C; 6: 1.05 °C

----------
# Tested on: LOC_OS04G41100-cb001
# Sequence (as listed by the source): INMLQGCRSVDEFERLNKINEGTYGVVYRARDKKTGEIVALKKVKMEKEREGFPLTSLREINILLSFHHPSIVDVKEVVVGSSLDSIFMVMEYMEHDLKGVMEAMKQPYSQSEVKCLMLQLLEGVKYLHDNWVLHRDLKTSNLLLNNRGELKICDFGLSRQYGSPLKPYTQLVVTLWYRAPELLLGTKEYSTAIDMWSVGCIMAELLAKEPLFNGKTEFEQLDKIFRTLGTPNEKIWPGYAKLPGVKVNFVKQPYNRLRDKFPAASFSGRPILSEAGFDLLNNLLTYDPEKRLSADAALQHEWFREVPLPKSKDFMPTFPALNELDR
# MEASUREMENT DESCRIPTION: thermal shift delta Tm vs DMSO control; higher = stronger stabilization (binding)
# ASSAY SETUP: 12.5 µM; protein concentration 2 µM
Is thermal shift delta Tm at least 0.7 °C? Then 1.0. If not, 0.0.

Reference set, count: 3
| COMPOUND SMILES | LABEL VALUE |
| --- | --- |
| O=C1Cc2c([nH]c3ccc(Br)cc23)-c2ccccc2N1 | 1.0 |
| O=C1NC(=O)/C(=C/c2cccc(C(F)(F)F)c2)S1 | 0.0 |
| Cn1c(=O)c(Oc2ccc(F)cc2F)cc2cnc(NC(CCO)CCO)nc21 | 0.0 |

### Prompt Check if thermal shift delta Tm >= 0.7 °C (inclusive). Item: `O=C(Cc1ccc(-c2ccc(OCCN3CCOCC3)cc2)cn1)NCc1ccccc1`
### Response 0.0

----------
# System: LOC_OS01G13800-cb001
# MEASUREMENT DESCRIPTION: thermal shift delta Tm vs DMSO control; higher = stronger stabilization (binding)
# ASSAY SETUP: 12.5 µM; protein concentration 2 µM
QUANTITY: thermal shift delta Tm (°C)
Answers are plain numbers, in °C.

Here's what some known entries look like.
| COMPOUND | QUANTITY | EXPERIMENTAL RESULT |
| --- | --- | --- |
| COc1cc(CCc2cc(NC(=O)c3ccc(N4CC(C)NC(C)C4)cc3)n[nH]2)cc(OC)c1 (stereo not drawn) | thermal shift delta Tm | -0.99 |
| CN1CCCN(C(=O)c2cccc(-c3ccc(/C=C4/C(=O)Nc5ccc(Cl)cc54)o3)c2)CC1 | thermal shift delta Tm | 0.13 |
| Clc1ccc(Nc2nnc(Cc3ccncc3)c3ccccc23)cc1 [Vatalanib (PTK787) 2HCl] | thermal shift delta Tm | 0.36 |
| CCc1cccc(CC)c1NC(=O)N1Cc2[nH]nc(NC(=O)c3ccc(N4CCN(C)CC4)cc3)c2C1 | thermal shift delta Tm | -0.49 |
| FC(F)(F)c1ccc(/C=C/c2nc(COc3ccc(CCCCn4ccnn4)cc3)co2)cc1 [Mubritinib (TAK 165)] | thermal shift delta Tm | 0.16 |

Batch of 3 compounds: report thermal shift delta Tm for each.
1. O=C(Nc1cc(C(F)(F)F)cc(C(F)(F)F)c1)c1cc(Cl)ccc1O
2. CC(C)(O)CNc1ncc(-c2ccnc(Nc3ccncc3)n2)c(CC2CC2)n1 [VPS34 inhibitor 1 (Compound 19, PIK-III analogue)]
3. CC(C)Oc1ccc(-c2nn([C@@H](C)c3oc4ccc(F)cc4c(=O)c3-c3cccc(F)c3)c3ncnc(N)c23)cc1F

### Response
1. 1.37
2. 0.63
3. 0.18

----------
# System: LOC_OS01G63280-cb003
# MEASUREMENT DESCRIPTION: thermal shift delta Tm vs DMSO control; higher = stronger stabilization (binding)
# ASSAY SETUP: 12.5 µM; protein concentration 2 µM
Provide the reported thermal shift delta Tm of each item.
One number for each entry, in °C.

| COMPOUND | VALUE UNITS | thermal shift delta Tm |
| --- | --- | --- |
| COc1cc(Nc2ncc(F)c(Nc3ccc4c(n3)N(COP(=O)(O)O)C(=O)C(C)(C)O4)n2)cc(OC)c1OC [R788 (Fostamatinib) Disodium] | °C | 1.12 |

Could you report thermal shift delta Tm for every entry in the following list?
1. CNC(=O)c1cc(COc2nnc(Nc3ccc(Cl)cc3)c3ccoc23)ccn1
2. O=C1Cc2c([nH]c3ccc(Br)cc23)-c2ccccc2N1
3. Cc1nc2c(-c3cnc(N)nc3)nc(N3CCOCC3)nc2n1C(C)C

### Response
0.76
3.38
0.78

----------
# System: LOC_OS03G12390-cb001
# MEASUREMENT DESCRIPTION: thermal shift delta Tm vs DMSO control; higher = stronger stabilization (binding)
# ASSAY SETUP: 12.5 µM; protein concentration 2 µM
Structures can show the parent of a compound that is named as a salt.
Please provide measured thermal shift delta Tm for the entries that follow.

| COMPOUND | TARGET OF ASSAY | thermal shift delta Tm |
| --- | --- | --- |
| CNS(=O)(=O)Nc1nccc(Cc2c(C)c3ccc(Oc4ncccn4)cc3oc2=O)c1F | LOC_OS03G12390-cb001 | 0.7 °C |

I need thermal shift delta Tm for every entry listed below, if you could help.
1. Cn1sc(=O)n(Cc2ccccc2)c1=O
2. O=C(Nc1cnn2ccc(N3CCC[C@@H]3c3cc(F)ccc3F)nc12)N1CC[C@H](O)C1 [Larotrectinib (LOXO-101) sulfate]
3. CCOc1cc(C(=O)N2CCC(N3CCN(C)CC3)CC2)ccc1Nc1ncc2c(n1)N(C1CCCC1)c1ccccc1C(=O)N2C

### Response
1: -3.39 °C; 2: -0.11 °C; 3: -0.16 °C

----------
# Test system: LOC_OS03G27990-cb004
# MEASUREMENT DESCRIPTION: thermal shift delta Tm vs DMSO control; higher = stronger stabilization (binding)
# ASSAY SETUP: 12.5 µM; protein concentration 2 µM
QUANTITY: thermal shift delta Tm (°C)
Numbers only, in °C.

Check out these entries, answers already filled in.
| COMPOUND | thermal shift delta Tm, °C |
| --- | --- |
| O=C(Nc1ccc(OC(F)(F)F)cc1)c1sccc1NCc1ccnc2ccccc12 | 0.45 |
| Cc1cn(-c2cc(NC(=O)c3ccc(C)c(Nc4nccc(-c5cccnc5)n4)c3)cc(C(F)(F)F)c2)cn1 [Nilotinib (AMN-107)] | 0.02 |
| COc1cc(N2CCC(N3CCN(C)CC3)CC2)ccc1Nc1ncnc(Nc2ccccc2S(=O)(=O)C(C)C)n1 | 0.28 |
| Cc1csc(-c2nnc(Nc3ccc(Oc4ncccc4-c4ccnc(N)n4)cc3)c3ccccc23)c1 | 0.96 |
| CCOc1cc2ncc(C#N)c(Nc3ccc(OCc4ccccn4)c(Cl)c3)c2cc1NC(=O)/C=C/CN(C)C [Neratinib (HKI-272)] | 1.01 |

I need thermal shift delta Tm for every entry listed below, if you could help.
1. CCc1cc(Nc2nccc(-c3c(-c4ccc(OC)c(C(=O)Nc5c(F)cccc5F)c4)nc4ccccn34)n2)c(OC)cc1N1CCC(N2CCN(S(C)(=O)=O)CC2)CC1
2. C[C@@H](Oc1cc(-c2cnn(C3CCNCC3)c2)cnc1N)c1c(Cl)ccc(F)c1Cl
3. CC(=O)Nc1cccc(-n2c(=O)n(C3CC3)c(=O)c3c(Nc4ccc(I)cc4F)n(C)c(=O)c(C)c32)c1
4. CCOC(=O)c1cnc2ccc(-c3cncc(NS(=O)(=O)c4ccccc4)c3)cn12

### Response
1: 0.49; 2: 0.48; 3: 0.22; 4: 0.16

Could I get thermal shift delta Tm for every one of these entries?
1. C=CC(=O)Nc1cccc(Nc2nc(Nc3ccc(N4CCN(C(C)=O)CC4)cc3OC)ncc2C(F)(F)F)c1 [Rociletinib (CO-1686, AVL-301)]
2. Cc1ccc(Nc2cc(N[C@@H]3CCCC[C@@H]3N)nnc2C(N)=O)nc1C
3. O=C(NC(NC(=S)Nc1ccc(F)c([N+](=O)[O-])c1)C(Cl)(Cl)Cl)C(c1ccccc1)c1ccccc1 (centres undefined)

### Response
1. 0.66
2. 1.5
3. 0.49

Parameter requested: thermal shift delta Tm. Apply to each item below.
1. COc1ccc(-c2ccc3ncc4c(c3c2)n(-c2ccc(N3CCNCC3)c(C(F)(F)F)c2)c(=O)n4C)cn1
2. C[C@@H]1COCCN1c1cc(=O)n2c(n1)N(Cc1cncc(Cl)c1)[C@H](C(F)(F)F)CC2
3. Cc1ccc(NC(=O)c2ccc(CN3CC[C@H](N(C)C)C3)c(C(F)(F)F)c2)cc1Nc1nccc(-c2cncnc2)n1 [Bafetinib (INNO-406)]
4. c1cc(-c2cnn3cc(-c4ccc(OCCN5CCCCC5)cc4)cnc23)ccn1 [Dorsomorphin 2HCl]
5. Clc1ccc(Nc2nnc(Cc3ccncc3)c3ccccc23)cc1 [Vatalanib (PTK787) 2HCl]
6. CC(C)(C)c1nc(-c2cccc(NS(=O)(=O)c3c(F)cccc3F)c2F)c(-c2ccnc(N)n2)s1
7. COc1cc2ccc(=O)oc2cc1O [Scopoletin]
8. COc1cc2nccc(Oc3ccc(NC(=O)Nc4cc(C)on4)c(Cl)c3)c2cc1OC [Tivozanib (AV-951)]

### Response
1. 0.61
2. 0.22
3. 0.43
4. 9.39
5. 0.02
6. 0.49
7. 0.3
8. 0.02

Quick one: give me thermal shift delta Tm for each item below, same order please.
1. CC(C)N(CCC(=O)c1ccc2ccccc2c1)Cc1ccccc1
2. O=C(NCCO)c1cccc(-c2cc(Nc3ccc(OC(F)(F)F)cc3)ncn2)c1
3. OCCn1cc(-c2cnc3nnn(Cc4ccc5ncccc5c4)c3n2)cn1
4. CC(C)CCN1c2nc(Nc3cc(F)c(O)c(F)c3)ncc2N(C)C(=O)C1C (centres undefined)
5. O=C1Cc2c([nH]c3ccc(Br)cc23)-c2ccccc2N1 [Kenpaullone]
6. COc1cc2ncnc(Nc3cccc(Cl)c3F)c2cc1OC(=O)N1CCN(C)C[C@H]1C
7. Cc1nc2c(-c3cnc(N)nc3)nc(N3CCOCC3)nc2n1C(C)C
8. CC(C)Nc1cc(-c2c[nH]c(C(=O)N[C@H](CO)c3cccc(Cl)c3)c2)c(Cl)cn1

### Response
-1
0.4
0.33
3.82
2.21
0.33
0.15
0.44

Go through the items and report each one's thermal shift delta Tm.
1. CCN1C(=O)CNc2ncc(-c3ccc(-c4nc[nH]n4)nc3C)nc21
2. CCc1nc(-c2cccc(C)c2)c(-c2ccnc(NC(=O)c3ccccc3)c2)s1
3. CN1CC[C@H](c2c(O)cc(O)c3c(=O)cc(-c4ccccc4Cl)oc23)[C@H](O)C1 [Flavopiridol (Alvocidib)]
4. O=C1CCc2c(Oc3ccc4c(c3)[C@@H]3[C@H](O4)[C@H]3c3nc4cc(C(F)(F)F)ccc4[nH]3)ccnc2N1 [Lifirafenib (BGB-283)]
5. CN1CCN(C2CCN(C(=O)Nc3cc(Oc4ccc(NC(=O)C5(C(=O)Nc6ccc(F)cc6)CC5)c(F)c4)ccn3)CC2)CC1 [Golvatinib (E7050)]

### Response
-0.12
0.28
1.06
0.6
0.36

### Prompt Give its thermal shift delta Tm value. Item: `O=C(NC[C@H](O)CO)c1ccncc1Nc1ccc(I)cc1F`
### Response 0.19
